# reported Kd; entries follow
Target: T1, His-tagged cynomolgus monkey TfR ectodomain (cyTFRC_89_760; mature protein) (cynomolgus monkey (Macaca fascicularis), UniProt Q5RDH6 89-760 (Pongo abelii entry))
T1 construct: also called cTfR; cTfR ectodomain
T1 chain: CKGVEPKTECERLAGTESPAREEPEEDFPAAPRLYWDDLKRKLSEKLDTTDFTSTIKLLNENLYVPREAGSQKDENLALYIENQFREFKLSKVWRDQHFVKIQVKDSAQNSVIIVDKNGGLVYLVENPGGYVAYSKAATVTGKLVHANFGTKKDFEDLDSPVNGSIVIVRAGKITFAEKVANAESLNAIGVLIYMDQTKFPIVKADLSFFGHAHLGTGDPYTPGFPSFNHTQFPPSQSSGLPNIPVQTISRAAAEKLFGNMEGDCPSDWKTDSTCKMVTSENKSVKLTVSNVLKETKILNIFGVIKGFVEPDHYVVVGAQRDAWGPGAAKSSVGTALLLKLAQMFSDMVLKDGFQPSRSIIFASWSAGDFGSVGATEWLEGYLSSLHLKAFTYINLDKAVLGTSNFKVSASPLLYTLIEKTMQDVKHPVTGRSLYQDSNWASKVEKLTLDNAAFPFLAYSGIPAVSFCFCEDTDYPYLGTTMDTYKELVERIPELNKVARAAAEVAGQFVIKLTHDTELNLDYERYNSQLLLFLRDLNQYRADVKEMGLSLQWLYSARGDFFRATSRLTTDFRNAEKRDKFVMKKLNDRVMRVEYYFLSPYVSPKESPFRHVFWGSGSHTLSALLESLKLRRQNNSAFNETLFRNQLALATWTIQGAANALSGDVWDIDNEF
Assay: SPR, His-tagged TfR ectodomain captured on anti-His, 1:1 fit
Report as a plain number; the unit nM is understood.

BINDER	Kd / nM
531_1L2_variant3 Fab (Fab, V domains shown, Humanized Fab; The His-tag was removed with TEV protease before SPR) VH: EVQLLESGGGLVQPGGSLRLSCAASGYTFTRYWLNWVRQAPGKGLEWIGMIDPSVSETHYADSVKGRATLSVDKSKNTAYLQMNSLRAEDTAVYYCSQIRLPYYYAMDSWGQGTTVTVSS VL: DIQMTQSPSSLSASVGDRVTITCRASQDINSFLNWYQQKPGKAVKLLIYYTSRLQSGVPSRFSGSGSGTDYTLTISSLQPEDFATYFCQQGNTLPRTFGGGTKVEIK	204

Enquiry: Give the reported Kd for this binder. 531-1L2_mouse mAb (antibody, IgG1, V domains shown, constant regions are not) VH: QVQLQQPGAELVSPGASVKLSCKASDYTFTRYWLNWVKQRPGQGLEWIGMIDPSVSECHYSQMFKDKATLTVDKSSSTAYMLLNSLTSEDSAVYYCSQIRLPYYYAMDSWGQGTSVTVSS VL: DIQMTQTPSSLSASLGDRVTISCRASQDINSFLNWYQQKPDGTVKLLIYYTSRLHSGVPSRFSGSGSGTDYSLTIGNLDQEDIATYFCQQGNTLPRTFGGGTKLELK
Return: 27

Enquiry: Please list Kd recorded for the binder 531_1L2_variant14 Fab (Fab, V domains shown, Humanized Fab; The His-tag was removed with TEV protease before SPR) VH: QVQLVQSGAEVKKPGASVKVSCKASDYTFTRYWLNWVRQAPGQGLEWMGMIDPSVSETHYAQKFQGRVTMTRDTSTSTVYMELSSLRSEDTAVYYCSQIRLPYYYAMDSWGQGTTVTVSS VL: DIQMTQSPSSLSASVGDRVTITCRASQDINSFLNWYQQKPGKAVKLLIYYTSRLQSGVPSRFSGSGSGTDYTLTISSLQPEDFATYFCQQGNTLPRTFGGGTKVEIK
Return: 75.1

Enquiry: Report measured Kd; entry is 531_1L2_variant16 Fab (Fab, V domains shown, Humanized Fab; The His-tag was removed with TEV protease before SPR) VH: QVQLVQSGAEVKKPGASVKVSCKASGYTFTRYYLNWVRQAPGQGLEWIGMIDPSVSETHYAQKFQGRATLTVDKSTSTAYMELSSLRSEDTAVYYCSQIRLPYYYAMDSWGQGTTVTVSS VL: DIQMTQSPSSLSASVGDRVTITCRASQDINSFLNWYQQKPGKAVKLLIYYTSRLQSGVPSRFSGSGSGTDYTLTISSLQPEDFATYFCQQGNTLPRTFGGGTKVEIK
Return: 70.4
